Exercise: for every item that follows, state its recorded Response.
- system: T1, Pext-01 (huANGTPL7-FLAG multimer) (human, UniProt O43827 27-346)
- T1 construct: also called PExt-1; human wild type ANGPTL7 multimer; not shown: FLAG tag
- T1 sequence: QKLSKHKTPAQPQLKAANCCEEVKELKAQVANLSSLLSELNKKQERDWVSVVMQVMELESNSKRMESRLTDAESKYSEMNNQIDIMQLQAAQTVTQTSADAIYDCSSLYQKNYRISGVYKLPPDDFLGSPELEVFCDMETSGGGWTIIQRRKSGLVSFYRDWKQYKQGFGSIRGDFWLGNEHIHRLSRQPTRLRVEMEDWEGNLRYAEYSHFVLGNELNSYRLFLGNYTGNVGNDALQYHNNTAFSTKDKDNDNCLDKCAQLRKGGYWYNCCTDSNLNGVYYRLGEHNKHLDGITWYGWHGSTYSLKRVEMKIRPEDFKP
- experimental_protocol: BLI Octet HTX; IgG on AHC sensor; Pext-01 at 100 nM; 1:1 fit; apparent KD
All answers are understood in nm, so give the number only.

Response reading for ATX-P-448 (antibody, human IgG1, kappa, N297A, V domains shown, Full chains (VH + hIgG1-Agly-Fc)) VH: QVQLVESGGGVVQPGRSLRLSCAASGFPFSSYGMHWVRQAPGKGLEWVAVMSYDGINGYYADSVKGRFTISRDNSKNTLYLQMNSLRAEDTAVYYCARLVYADDAFDIWGQGTTVTVSS VL: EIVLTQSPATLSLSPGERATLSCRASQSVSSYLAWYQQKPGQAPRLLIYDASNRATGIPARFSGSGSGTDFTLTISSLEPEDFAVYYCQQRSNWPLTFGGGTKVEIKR : 0.58

Record ATX-P-427 (antibody, human IgG1, kappa, N297A, V domains shown, Full chains (VH + hIgG1-Agly-Fc)) VH: EVQLVESGGGVVRPGGSLRLSCAASGFSFDDYGMSWVRQVPGKGLEWVSGINWNGGSTGYADSVKGRFTISRDNAKNSLYLQMSSLRAEDTALYYCASYSGSFRDAFDIWGQGTMVTVSS VL: AIQMTQSPSSLSASVGDRVTITCRASQGIRNDLGWYQQKPGKAPKLLIYAASSLQSGVPSRFSGSGSGTDFTLTISSLQPEDFATYYCLQDYNYPYTFGQGTKLEIKR , field Response: 0.82

Documented Response of ATX-P-423 (antibody, human IgG1, kappa, N297A, V domains shown, Full chains (VH + hIgG1-Agly-Fc)) VH: QVQLVESGGGVVQPGRSLRLSCAASGFTFSSYGMHWVRQAPGKGLEWVSHITYDGSDKYYGDSVKGRFTISRDNSKNTLYLQMNSLRAEDTAVYYCAKDGYSSGWWYFDYWGQGTLVTVSS VL: DIQMTQSPSSLSASVGDRVTITCRASQGIRNDLGWYQQKPGKAPKRLIYAASSLQSGVPSRFSGSGSGTEFALTISSLQPEDFATYYCLQHNSYPLTFGGGTKLEIKR : 0.87
